- Test system: L1210 leukemia ip in BDF1 mice, survival T/C
- assay: NCI In Vivo Anticancer Drug Screen. Data for tumor model L1210 Leukemia (intraperitoneal) in B6D2F1 (BDF1) mice
- test context: endpoint: mean survival time; dose: 200.0 mg/kg/injection; schedule: Q04DX002 (ip); vehicle: Klucel (hydroxypropylcellulose) (HPC); higher = longer survival
Toxic doses and inconclusive results are not listed.
experimental readout: T/C

INSERT INTO assay_data (compound, experimental_readout, result) VALUES
  ('CC1(C)CC(=O)C2=C(C1)Nc1ccccc1NC2c1ccccc1 (centres undefined)', 'T/C', '92 % of control');

List the reported T/C of each compound below.
1. NCCC1=NCCN1
2. COc1cc2c(cc1OC)C(OC)N(C)c1c-2ccc2cc3c(cc12)OCO3 (centres undefined)
3. Oc1ccccc1/C=N/Sc1ccccc1.Oc1ccccc1/C=N/Sc1ccccc1.[Ni+2]
4. COC1OC(CI)C(OC(C)=O)C(OC(C)=O)C1OC(C)=O (centres undefined)
5. CN(C)C(=N)CSS(=O)(=O)O
6. O=C(NC(C(=O)c1ccccc1)c1ccccc1)c1ccccc1 (centres undefined)
7. O=C(CCCCCCCCC(=O)NCCBr)NCCBr

1. 104 % of control
2. 123 % of control
3. 94 % of control
4. 97 % of control
5. 101 % of control
6. 106 % of control
7. 101 % of control

Request - read-out T/C | tested on L1210 leukemia ip in BDF1 mice, survival T/C | compound CCOC(=O)CCCCCC(C(=O)OCC)c1nc2ccccc2[nH]c1=O (centres undefined)
101 % of control

###

- Test system: L1210 leukemia ip in BDF1 mice, survival T/C
- assay: NCI In Vivo Anticancer Drug Screen. Data for tumor model L1210 Leukemia (intraperitoneal) in B6D2F1 (BDF1) mice
- test context: endpoint: mean survival time; dose: 200.0 mg/kg/injection; schedule: Q01DX001 (ip); vehicle: other; higher = longer survival
Inconclusive results and toxic doses are left out.
Give T/C for every item shown.

Consider the worked cases shown below.
INSERT INTO results (compound, result) VALUES
  ('CCOC(=O)C(C1=NC(C)(C)CC(C)O1)C(C[N+](=O)[O-])c1ccccc1 (configuration not stated)', '97 % of control'),
  ('NC(=O)CSc1cc(Cl)ccc1Cl', '107 % of control'),
  ('O=c1[nH]c2ccccc2cc1Br', '96 % of control');

List the reported T/C of each compound below.
1. O=C(OC1CCCCC1)c1ccccc1-c1ccccc1C(=O)OC1CCCCC1
2. Cn1c(=O)c2[nH]c(-c3ccc4c(c3)OCO4)nc2n(C)c1=O

91 % of control
95 % of control

List the reported T/C of each compound below.
1. CCCCC/C(=N/NC(N)=O)C(OC)OC
2. CSc1nc(N)c(N)c(SC)n1

1. 92 % of control
2. 101 % of control

###

- Test system: L1210 leukemia ip in BDF1 mice, survival T/C
- assay: NCI In Vivo Anticancer Drug Screen. Data for tumor model L1210 Leukemia (intraperitoneal) in B6D2F1 (BDF1) mice
- test context: endpoint: mean survival time; dose: 200.0 mg/kg/injection; schedule: Q01DX001 (ip); vehicle: saline; higher = longer survival
Inconclusive results and toxic doses are left out.
experimental readout: T/C

INSERT INTO assay_data (compound, result) VALUES
  ('CN=C(N)c1ccc(C(=O)OCCOC)cc1', '107 % of control'),
  ('O=C(N/N=C\c1cc(=O)[nH]c(=O)[nH]1)c1ccncc1', '95 % of control'),
  ('O=C(O)c1cccc(-c2ccccc2)c1O', '102 % of control'),
  ('c1ccc2c(c1)[nH]c1c[n+]3c(c[n+]12)[nH]c1ccccc13', '113 % of control'),
  ('CCc1cccc(CC)c1NC(=O)Nc1ccc(Br)cc1', '89 % of control'),
  ('Cc1ccc(S(=O)(=O)N2CCC(Br)C(=O)c3ccccc32)cc1 (configuration not stated)', '107 % of control'),
  ('COC(=O)/C=C/c1cccc([N+](=O)[O-])c1', '100 % of control'),
  ('O=C(Nc1ccc(Cl)c(Cl)c1)OCn1ncc2ccc([N+](=O)[O-])cc21', '96 % of control'),
  ('COC1C(N)C(O)OC(CO)C1O (configuration not stated)', '103 % of control'),
  ('O=C(/C(=N/OCc1ccccc1)c1ccccc1)c1ccccc1', '102 % of control');

List the reported T/C of each compound below.
1. CCC(C)OC(=O)C(C)OC(=O)OCCOCCOC(=O)OC(C)C(=O)OC(C)CC (configuration not stated)
2. O=C(Nc1ccc(S(=O)(=O)NC2CCCCC2)cc1)Oc1ccc([N+](=O)[O-])cc1

100 % of control
100 % of control
